# pIC50 listing for each entry below
- TARGET SYSTEM: α-Glucosidase from Saccharomyces cerevisiae (EC 3.2.1.20) (Saccharomyces cerevisiae)
- Construct: purchased Sigma-Aldrich
- Sequence (P53341 whole entry): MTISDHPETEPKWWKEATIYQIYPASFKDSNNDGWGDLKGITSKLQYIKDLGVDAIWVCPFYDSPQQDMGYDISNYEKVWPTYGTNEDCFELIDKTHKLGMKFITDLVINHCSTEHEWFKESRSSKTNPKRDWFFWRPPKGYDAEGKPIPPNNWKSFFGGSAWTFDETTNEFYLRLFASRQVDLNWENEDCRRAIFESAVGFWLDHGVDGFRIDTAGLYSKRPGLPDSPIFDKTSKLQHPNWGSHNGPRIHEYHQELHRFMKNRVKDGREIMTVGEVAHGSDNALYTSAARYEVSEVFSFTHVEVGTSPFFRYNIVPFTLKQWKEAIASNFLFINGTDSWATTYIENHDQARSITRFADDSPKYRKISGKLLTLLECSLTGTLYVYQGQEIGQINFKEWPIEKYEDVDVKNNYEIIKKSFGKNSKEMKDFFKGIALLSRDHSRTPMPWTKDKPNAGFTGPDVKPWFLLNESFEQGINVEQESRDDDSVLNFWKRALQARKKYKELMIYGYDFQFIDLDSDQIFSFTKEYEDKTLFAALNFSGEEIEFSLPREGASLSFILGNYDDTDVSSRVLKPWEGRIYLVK
- EXPERIMENT DESCRIPTION: biochemical
- CONDITION SET: p-NPG 0.25 mM, enzyme 0.1 U/ml, PBS pH 6.8, 37°C; read-out: IC50, α-glucosidase inhibitory activity
pIC50: −log10 of the molar value.

| COMPOUND | TARGET SYSTEM | pIC50 |
| --- | --- | --- |
| O=C(/C=C/c1cccc(C(F)(F)F)c1)c1cc2ccccc2oc1=O [Compound 3m] | α-Glucosidase from Saccharomyces cerevisiae (EC 3.2.1.20) (Saccharomyces cerevisiae) | 4.19 |
| O=C(/C=C/c1ccc(F)cc1F)c1cc2ccccc2oc1=O [Compound 3j] | α-Glucosidase from Saccharomyces cerevisiae (EC 3.2.1.20) (Saccharomyces cerevisiae) | 4.52 |
| COc1cccc(/C=C/C(=O)c2cc3ccccc3oc2=O)c1 [Compound 3d] | α-Glucosidase from Saccharomyces cerevisiae (EC 3.2.1.20) (Saccharomyces cerevisiae) | 4.02 |
| CSc1ccc(/C=C/C(=O)c2cc3ccccc3oc2=O)cc1 [Compound 3f] | α-Glucosidase from Saccharomyces cerevisiae (EC 3.2.1.20) (Saccharomyces cerevisiae) | 4.12 |
| COc1ccccc1/C=C/C(=O)c1cc2ccccc2oc1=O [Compound 3c] | α-Glucosidase from Saccharomyces cerevisiae (EC 3.2.1.20) (Saccharomyces cerevisiae) | 4.22 |
| O=C(/C=C/c1cc2ccccc2[nH]1)c1cc2ccccc2oc1=O [Compound 3v] | α-Glucosidase from Saccharomyces cerevisiae (EC 3.2.1.20) (Saccharomyces cerevisiae) | 3.99 |
| Cc1ccc(/C=C/C(=O)c2cc3ccccc3oc2=O)cc1 [Compound 3b] | α-Glucosidase from Saccharomyces cerevisiae (EC 3.2.1.20) (Saccharomyces cerevisiae) | 4.02 |
| O=C(/C=C/c1ccc(F)c(F)c1)c1cc2ccccc2oc1=O [Compound 3k] | α-Glucosidase from Saccharomyces cerevisiae (EC 3.2.1.20) (Saccharomyces cerevisiae) | 4.30 |
| O=C(/C=C/c1ccc(C(F)(F)F)cc1)c1cc2ccccc2oc1=O [Compound 3n] | α-Glucosidase from Saccharomyces cerevisiae (EC 3.2.1.20) (Saccharomyces cerevisiae) | 4.27 |
